# Test system: Fibroblast
# method: Multiplex assay against human fibroblast
# Format: toxicity, cell-based
# test_conditions: 12 h, 10 µM, compound concentration 10 uM, replicate 1
Exercise: state measured Population Membrane Permeable-Phenotype (%) for each of the compounds provided.
The number alone won't do; follow it with the unit.

Requested field: Population Membrane Permeable-Phenotype (%). Item: `CC(C)(C)c1ccc(CSc2cnn(C(C)(C)C)c(=O)c2Cl)cc1`
2%

# repeat for `COCCn1c(C)c(C)s/c1=N\C(=O)C1C(C)(C)C1(C)C`
1%

# repeat for `S=C(NCCCc1c[nH]cn1)NCCCN(Cc1ccc(Cl)c(Cl)c1)c1ccc(Br)cn1`
0%

# repeat for `N[C@](CC1c2ccccc2Oc2ccccc21)(C(=O)O)[C@H]1C[C@@H]1C(=O)O`
2%

# repeat for `C=CCN1C[C@H](C(=O)N(CCCN(C)C)C(=O)NCC)C[C@@H]2c3cccc4[nH]cc(c34)C[C@H]21`
0%

# repeat for `CCCCCCNC(=O)Nc1ccc(S(=O)(=O)Nc2ccc(CCNC[C@H](O)COc3ccc(O)cc3)cc2)cc1`
0%

# repeat for `Cc1c(Cc2ccc3ccccc3n2)c2cc(F)ccc2n1CC(=O)O`
0%

# repeat for `COc1cc(Nc2ncc3c(n2)-c2ccc(Cl)cc2C(c2c(F)cccc2OC)=NC3)ccc1C(=O)O`
1%

# repeat for CN(C)C/C=C/C(=O)Nc1ccc(C(=O)N2CCCC(Nc3ncc(Cl)c(-c4c[nH]c5ccccc45)n3)C2)cc1 (stereo unspecified)
1%

# repeat for `Cc1cc(-c2ccc3c(c2)CC[C@H]3N2CC3(CCN(C(=O)Cc4cn5cc(C)sc5n4)CC3)C2)ncn1`
1%

# repeat for O=C(NCCNCC(O)COc1ccc(O)cc1)N1CCOCC1.O=C(NCCNCC(O)COc1ccc(O)cc1)N1CCOCC1.O=C(O)/C=C/C(=O)O (stereo unspecified) [XAMOTEROL FUMARATE]
2%

# repeat for CN1CCN2c3ccccc3Cc3ccccc3C2C1.Cl (stereo unspecified) [MIANSERIN HYDROCHLORIDE]
1%

# repeat for O=C(O)CCC/C=C\CC1C(O)CC(O)C1/C=C/C(O)COc1cccc(Cl)c1 (stereo unspecified)
0%

# repeat for `C[C@H](NC(=O)CNC(=O)c1cccc(Cl)c1)c1ccccc1`
0%

# repeat for `Cc1nn(C)c2nc(NNC(=O)Nc3cc(Cl)nc(Cl)c3)cc(C(C)C)c12`
2%

# repeat for CCC(=O)OCC(=O)[C@@]1(OC(=O)CC)[C@@H](C)C[C@H]2[C@@H]3CCC4=CC(=O)C=C[C@]4(C)[C@@]3(Cl)[C@@H](O)C[C@@]21C [BECLOMETHASONE DIPROPIONATE]
1%

###

# Tested on: Fibroblast
# method: Multiplex assay against human fibroblast
# Format: toxicity, cell-based
# test_conditions: 24 h, 10 µM, compound concentration 10 uM, replicate 2
Exercise: state measured Population Healthy Nuclei (%) for each of the compounds provided.
The number alone won't do; follow it with the unit.

Requested field: Population Healthy Nuclei (%). Item: CCn1c(-c2nc3cc(C(=O)N4CCCC(N)C4)ccc3n2C)cc2ccccc21.Cl (stereo not drawn)
46%

# repeat for `CC(F)(F)CN1CCOc2c(nn(-c3ccccc3Cl)c2-c2ccc(Cl)cc2)C1=O`
54%

# repeat for `CC(C)(O)C(=O)N1CCN(c2ccc(C(F)(F)F)c(C3=C(c4c[nH]c5ccccc45)C(=O)NC3=O)c2)CC1`
33%

# repeat for `Cn1cc(C(=O)OCC2CCN(CCNS(C)(=O)=O)CC2)c2ccccc21`
43%

# repeat for Cc1ccc(OCC(O)C(C)NC(C)C)c2c1CCC2.Cl (stereo not drawn)
50%

# repeat for `CCCCCCNC(=O)Nc1ccc(S(=O)(=O)Nc2ccc(CCNC[C@H](O)COc3ccc(O)cc3)cc2)cc1`
51%

# repeat for `Cc1sc2c(c1C)C(c1ccc(Cl)cc1)=N[C@H](CC(=O)OC(C)(C)C)c1nnc(C)n1-2`
45%

# repeat for `CN(C)C(=O)Cn1cc(-c2ccc(-c3nnc4ccccn34)cc2)cn1`
40%

# repeat for CN(C)C/C=C/C(=O)Nc1ccc(C(=O)N2CCCC(Nc3ncc(Cl)c(-c4c[nH]c5ccccc45)n3)C2)cc1 (stereo not drawn)
42%

# repeat for `Cc1cc(-c2ccc3c(c2)CC[C@H]3N2CC3(CCN(C(=O)Cc4cn5cc(C)sc5n4)CC3)C2)ncn1`
49%

# repeat for O=C(O)CCC/C=C\CC1C(O)CC(O)C1/C=C/C(O)COc1cccc(Cl)c1 (stereo not drawn)
50%

# repeat for COc1cc2nc(N3CCN(C(=O)c4ccco4)CC3)nc(N)c2cc1OC.Cl [PRAZOSIN HYDROCHLORIDE]
49%

# repeat for `COc1c(Nc2ccc(S(C)(=O)=O)nc2C)ncnc1OC1CCN(C(=O)OC(C)C)CC1`
31%

# repeat for `CC(C)C[C@H](CO)Nc1nc(S[C@@H](C)c2ccccc2)nc2nc(N)sc12`
38%

# repeat for `S=C(NCCCc1c[nH]cn1)NCCCN(Cc1ccc(Cl)c(Cl)c1)c1ccc(Br)cn1`
59%

# repeat for `CCc1nn2c(C)cc(C)nc2c1Cc1ccc(-c2nnc(C3CCNCC3)o2)cc1`
42%

# repeat for Cl.Cl.OCCOCCN1CCN(C(c2ccccc2)c2ccc(Cl)cc2)CC1 (stereo not drawn) [HYDROXYZINE HYDROCHLORIDE]
50%

# repeat for `Cc1c(Cc2ccc3ccccc3n2)c2cc(F)ccc2n1CC(=O)O`
58%

###

# System: Fibroblast
# method: Multiplex assay against human fibroblast
# Assay type: toxicity, cell-based
# test_conditions: 12 h, 10 µM, compound concentration 10 uM, replicate 1
Decide using Population Mitotic Cells (%) alone. Strictly below 50%: YES. Equal to or above 50%: NO.

Is 50% strictly greater than the compound's reported Population Mitotic Cells (%)? compound: CCCCCCNC(=O)Nc1ccc(S(=O)(=O)Nc2ccc(CCNC[C@H](O)COc3ccc(O)cc3)cc2)cc1 [L-755507]
NO

# repeat for CN(C)C/C=C/C(=O)Nc1ccc(C(=O)N2CCCC(Nc3ncc(Cl)c(-c4c[nH]c5ccccc45)n3)C2)cc1 (stereo unspecified)
YES

# repeat for `O=C(Nc1cc(-c2ccccc2)nn1-c1ccccc1F)c1ccc([N+](=O)[O-])cc1`
NO

# repeat for CN1C[C@H](C(=O)N[C@]2(C)O[C@@]3(O)[C@@H]4CCCN4C(=O)[C@H](Cc4ccccc4)N3C2=O)C[C@@H]2c3cccc4[nH]cc(c34)C[C@H]21.CS(=O)(=O)O [DIHYDROERGOTAMINE MESYLATE]
YES

# repeat for Cc1c(Cc2ccc3ccccc3n2)c2cc(F)ccc2n1CC(=O)O [TIMAPIPRANT]
YES

# repeat for O=C(O)CCC/C=C\CC1C(O)CC(O)C1/C=C/C(O)COc1cccc(Cl)c1 (stereo unspecified) [CLOPROSTENOL]
NO

# repeat for `C[C@@H]1CC(=O)Nc2cccc(-c3ccc4c(c3)c(-c3cnn(C)c3)nn4C)c2N1`
NO

# repeat for Nc1nc(CC(=O)Nc2ccc(CCNC[C@H](O)c3ccccc3)cc2)cs1 [MIRABEGRON]
NO

# repeat for O=c1nc2[nH]c3ccccc3nc-2c(=O)[nH]1 [ALLOXAZINE]
NO

# repeat for `S=C(NCCCc1c[nH]cn1)NCCCN(Cc1ccc(Cl)c(Cl)c1)c1ccc(Br)cn1`
NO

# repeat for Cc1cc(NC(=O)NCCN2CCC(O)(Cc3ccccc3)CC2)c2ccccc2n1 [PALOSURAN]
NO

# repeat for `CCc1nn2c(C)cc(C)nc2c1Cc1ccc(-c2nnc(C3CCNCC3)o2)cc1`
YES

# repeat for `CC(F)(F)CN1CCOc2c(nn(-c3ccccc3Cl)c2-c2ccc(Cl)cc2)C1=O`
NO

# repeat for `OCCCNc1cc(-c2ccnc(Nc3cccc(Cl)c3)n2)ccn1`
YES

# repeat for Cl.Cl.OCCOCCN1CCN(C(c2ccccc2)c2ccc(Cl)cc2)CC1 (stereo unspecified) [HYDROXYZINE HYDROCHLORIDE]
NO

# repeat for COC(c1ccccc1)(c1ccccc1)[C@H](Oc1nc(C)cc(C)n1)C(=O)O [AMBRISENTAN]
YES

# repeat for `CC(C)(O)C(=O)N1CCN(c2ccc(C(F)(F)F)c(C3=C(c4c[nH]c5ccccc45)C(=O)NC3=O)c2)CC1`
NO

# repeat for COc1ccc2c(c1OCc1ccccc1)C[C@@H](C(=O)O)N(C(=O)C(c1ccccc1)c1ccccc1)C2 [OLODANRIGAN]
NO

# repeat for `Cc1cc(O)c(-c2ccc([C@@H](C)CN(C)C)cc2)c2c1[nH]c(=O)c1sccc12`
YES

# repeat for `Cc1nn(C)c2nc(NNC(=O)Nc3cc(Cl)nc(Cl)c3)cc(C(C)C)c12`
YES

# repeat for Cc1cc(-c2ccc3c(c2)CC[C@H]3N2CC3(CCN(C(=O)Cc4cn5cc(C)sc5n4)CC3)C2)ncn1 [PF-5190457]
NO

# repeat for `COCCn1c(C)c(C)s/c1=N\C(=O)C1C(C)(C)C1(C)C`
YES

# repeat for `COc1cc(OC2CCN(C(C)=O)CC2)ccc1C(=O)N1CCC(N2C(=O)OCc3ccccc32)CC1`
YES

# repeat for `Nc1nc(-c2ccco2)c2cnn(Cc3ccccc3F)c2n1`
YES

# repeat for COc1ccc2[nH]c(I)c(CCNC(C)=O)c2c1 [IODOMELATONIN]
NO

# repeat for `CN1CCN(c2ccc(Nc3c4ccccc4nc4ccccc34)cc2)CC1.Cl.Cl.O`
YES

# repeat for `Cc1cc(=O)n(C)c2cc(N3C(=O)CC[C@H](NS(=O)(=O)CC(C)C)[C@H]3c3ccc(Cl)cc3)ccc12`
NO

# repeat for Cc1ccc(OCC(O)C(C)NC(C)C)c2c1CCC2.Cl (stereo unspecified)
NO
